- system: T1, PRO5801 (human IL-17RH1 receptor) (Homo sapiens, UniProt Q9NRM6)
- T1 sequence (Q9NRM6 18-502): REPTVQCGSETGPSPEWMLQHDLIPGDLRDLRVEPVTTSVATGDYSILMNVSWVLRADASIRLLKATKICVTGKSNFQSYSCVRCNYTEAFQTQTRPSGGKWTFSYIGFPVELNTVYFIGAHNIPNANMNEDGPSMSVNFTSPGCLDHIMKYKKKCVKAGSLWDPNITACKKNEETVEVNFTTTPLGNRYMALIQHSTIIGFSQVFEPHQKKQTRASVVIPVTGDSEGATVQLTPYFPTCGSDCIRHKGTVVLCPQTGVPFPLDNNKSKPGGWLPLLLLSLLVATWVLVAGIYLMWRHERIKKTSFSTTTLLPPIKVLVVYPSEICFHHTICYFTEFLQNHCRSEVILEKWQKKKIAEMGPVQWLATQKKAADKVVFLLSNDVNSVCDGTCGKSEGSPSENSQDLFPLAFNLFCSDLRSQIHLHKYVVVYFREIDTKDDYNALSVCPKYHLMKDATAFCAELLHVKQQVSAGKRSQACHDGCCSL
- methodDescription: Receptor/ligand interaction screening assay (immunoadhesin)
- Format: binding

{"columns": ["molecule", "binding to IL-17RH1 receptor (PRO5801)"],
 "data": [
  ["PRO1031 (human IL-17B ligand) (ligand, UniProt Q9UHF5 21-180, looked up) QPRSPKSKRKGQGRPGPLAPGPHQVPLDLVSRMKPYARMEEYERNIEEMVAQLRNSSELAQRKCEVNLQLWMSNKRSLSPWGYSINHDPSRIPVDLPEARCLCLGCVNPFTMQEDRSMVSVPVFSQVPVRRRLCPPPPRTGPCRQRAVMETIAVGCTCIF", "binds to"],
  ["human IL-17E (PRO10272), protein used in SPR (ligand, UniProt Q9H293 33-177, looked up, construct not described) YSHWPSCCPSKGQDTSEELLRWSTVPVPPLEPARPNRHPESCRASEDGPLNSRAISPWRYELDRDLNRLPQDLYHARCLCPHCVSLQTGSHMDPRGNSELLYHNQTVFYRRPCHGEKGTHKGYCLERRLYRVSLACVCVRPRVMG", "binds to"],
  ["PRO1122 (IL-17C ligand) (ligand, UniProt Q9P0M4 19-197, looked up) HHDPSLRGHPHSHGTPHCYSAEELPLGQAPPHLLARGAKWGQALPVALVSSLEAASHRGRHERPSATTQCPVLRPEEVLEADTHQRSISPWRYRVDTDEDRYPQKLAFAECLCRGCIDARTGRETAALNSVRLLQSLLVLRRRPCSRDGSGLPTPGAFAFHTEFIHVPVGCTCVLPRSV", "do not interact"],
  ["PRO21175 (IL-17D ligand) (ligand, UniProt Q8TAD2 16-202, looked up) AGAPRAGRRPARPRGCADRPEELLEQLYGRLAAGVLSAFHHTLQLGPREQARNASCPAGGRPADRRFRPPTNLRSVSPWAYRISYDPARYPRYLPEAYCLCRGCLTGLFGEEDVRFRSAPVYMPTVVLRRTPACAGGRSVYTEAYVTIPVGCTCVPEPEKDADSINSSIDKQGAKLLLGPNDAPAGP", "do not interact"]
]}
